src = ChEMBL document CHEMBL3507680

# assayMethodText: Human HepG2 cell viability assay in 384 well format
# Format: toxicity, cell-based
# Design: dose 125 nL, time 70.5 hour; concentration not given beside the values
# appliedConditions: HepG2 cells, read-out: Inhibition
Attribute: cytotoxicity at 70.5 h

{"molecule": "Fc1cccc(CN2CCC(c3n[nH]c4ncccc34)CC2)c1F", "cytotoxicity at 70.5 h, %": -9.75}
{"molecule": "CCCN1CCCn2nc(CNS(=O)(=O)c3ccc(C)cc3)cc2C1", "cytotoxicity at 70.5 h, %": -6.85}
{"molecule": "CC(C)c1nc2n(n1)CC(NCc1nc(C3CC3)no1)CC2 (centres undefined)", "cytotoxicity at 70.5 h, %": -1.86}
{"molecule": "O=C(Cc1ccc(F)cc1)NCCNc1cc(N2CCCC2)ncn1", "cytotoxicity at 70.5 h, %": 22.2}
{"molecule": "CC(C)c1cc(NC(=O)c2cccnc2)[nH]n1", "cytotoxicity at 70.5 h, %": -10.3}
{"molecule": "CCO[C@H]1CN(C)C[C@@H]1NC(=O)c1cc(C)nc2ccc(C)cc12", "cytotoxicity at 70.5 h, %": -6.33}
{"molecule": "COc1ccc(S(=O)(=O)N[C@H]2CN(C(C)=O)C[C@@H]2C(C)C)cc1F", "cytotoxicity at 70.5 h, %": -12.5}
{"molecule": "CCN(CC)S(=O)(=O)N1CCCC(c2nccn2Cc2cccnc2)C1 (centres undefined)", "cytotoxicity at 70.5 h, %": -5.79}
{"molecule": "Cc1ccc(NC(=O)CC2NC(N3CCc4ccccc43)=NC2=O)cc1 (centres undefined)", "cytotoxicity at 70.5 h, %": -7.26}
{"molecule": "Cn1cccc1CNC(=O)CCCc1nnc2ccccn12", "cytotoxicity at 70.5 h, %": -3.22}
{"molecule": "COC(=O)c1ccc(N(C(=O)c2cc(Cl)ccn2)C(C)C)c(C)c1", "cytotoxicity at 70.5 h, %": -2.71}
{"molecule": "CCCS(=O)(=O)N1CCN(c2cc(-n3cnc(C)c3C)nc(C)n2)CC1", "cytotoxicity at 70.5 h, %": -4.37}
{"molecule": "Cc1cc(C(=O)NCc2cccn2C)nn1C", "cytotoxicity at 70.5 h, %": 15.6}
{"molecule": "CN1CCC(c2cccc(Cc3ccc(C(F)(F)F)cc3)n2)CC1", "cytotoxicity at 70.5 h, %": -0.939}
{"molecule": "Cc1cc(C(=O)NCC(C)C)nn1C", "cytotoxicity at 70.5 h, %": -5.81}
{"molecule": "CC(C)c1noc([C@@H]2Cc3[nH]cnc3CN2C(=O)Nc2ccccc2)n1", "cytotoxicity at 70.5 h, %": 9.88}
{"molecule": "Cc1nn(C)c2c(NCCCn3cccn3)nc(C3CC3)nc12", "cytotoxicity at 70.5 h, %": -5.95}
{"molecule": "COc1cccc(-c2nc(C)c(C(=O)NC(CO)CCSC)s2)c1 (centres undefined)", "cytotoxicity at 70.5 h, %": -25}
{"molecule": "Cc1ccc(C(=O)N2CCn3c(COCC4CC4)cnc3C2C)s1 (centres undefined)", "cytotoxicity at 70.5 h, %": -4.86}
{"molecule": "Cc1ccc2nc(C3CCN(CC4CC4)CC3)nn2c1", "cytotoxicity at 70.5 h, %": 32.6}
{"molecule": "CCc1ccc(C2CC(=O)Nc3c2c(=O)[nH]n3C(C)C)cc1 (centres undefined)", "cytotoxicity at 70.5 h, %": 0.136}
{"molecule": "CN(C)Cc1cnc2n1CCN(Cc1ccsc1)CC2", "cytotoxicity at 70.5 h, %": -2.43}
{"molecule": "CCOC(=O)CSc1ccc(-c2nc(CC)no2)cn1", "cytotoxicity at 70.5 h, %": -2.21}
{"molecule": "Cc1cnc(CN(C)C2CCN(Cc3ccccc3C#N)C2)o1 (centres undefined)", "cytotoxicity at 70.5 h, %": -5.36}
